Target: TLS/FUSΔR (UniProt P35637 1-506)
Sequence (P35637 1-506, stated change not applied): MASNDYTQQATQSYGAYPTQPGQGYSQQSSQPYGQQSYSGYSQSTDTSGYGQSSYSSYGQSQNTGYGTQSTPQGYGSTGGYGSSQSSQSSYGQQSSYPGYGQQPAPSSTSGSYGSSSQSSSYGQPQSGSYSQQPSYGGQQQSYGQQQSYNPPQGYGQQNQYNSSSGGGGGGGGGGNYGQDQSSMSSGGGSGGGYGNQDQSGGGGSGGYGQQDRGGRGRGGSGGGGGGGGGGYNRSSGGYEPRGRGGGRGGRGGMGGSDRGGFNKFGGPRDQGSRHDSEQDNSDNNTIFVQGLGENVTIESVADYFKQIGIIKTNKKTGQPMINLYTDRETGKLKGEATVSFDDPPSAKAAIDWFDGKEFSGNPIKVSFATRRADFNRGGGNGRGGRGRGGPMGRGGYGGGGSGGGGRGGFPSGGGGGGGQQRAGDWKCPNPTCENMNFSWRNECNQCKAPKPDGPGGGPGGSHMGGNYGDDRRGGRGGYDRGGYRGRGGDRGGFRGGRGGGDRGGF
Assay: EMSA
observable: binding result

[
  {
    "binder": "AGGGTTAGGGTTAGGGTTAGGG (structured_DNA) [Htelo]",
    "observable": "binding result",
    "recorded.result": "no binding"
  },
  {
    "binder": "dsDNA (dsDNA) DNA 1: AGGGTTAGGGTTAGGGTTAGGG DNA 2: CCCTAACCCTAACCCTAACCCT",
    "observable": "binding result",
    "recorded.result": "no binding"
  },
  {
    "binder": "dsRNA (dsRNA) RNA 1: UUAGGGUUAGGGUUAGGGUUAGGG RNA 2: CCCUAACCCUAACCCUAACCCUAA",
    "observable": "binding result",
    "recorded.result": "no binding"
  }
]

Data origin: paper PMC6159513
